molecular target: hTREM2 (Homo sapiens); test: TREM2 activity by cellular Syk phosphorylation (AlphaScreen/AlphaLISA) in TREM2/DAP12-HEK cells, used for Examples 1-305; format: cell-based; set-up: expressed in transfected cells; conditions: HEK293 Cells
Sequence (Q9NZC2 19-230): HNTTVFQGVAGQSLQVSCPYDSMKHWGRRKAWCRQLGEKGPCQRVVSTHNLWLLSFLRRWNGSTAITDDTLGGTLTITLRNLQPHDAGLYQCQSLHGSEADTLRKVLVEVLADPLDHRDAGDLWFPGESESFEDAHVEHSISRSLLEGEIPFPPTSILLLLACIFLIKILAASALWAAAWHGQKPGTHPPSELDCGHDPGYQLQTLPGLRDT
Sequence (O43914 22-113 partner): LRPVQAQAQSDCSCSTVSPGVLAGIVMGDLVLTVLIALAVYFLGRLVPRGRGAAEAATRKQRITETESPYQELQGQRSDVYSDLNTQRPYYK
ENDPOINT: hTREM2 Emax

In the examples that follow, each entry is paired with its recorded hTREM2 Emax.
Cc1cc([C@H]2C[C@H](c3nc(-c4ccc(Cl)cc4F)c4nc(C)c(C)nc4n3)CCO2)ccn1 | +++ (Emax>150 and ≤250)
Cc1cc([C@H]2CN(c3nc(C4CCC(F)(F)CC4)c4nc(C)c(C)nc4n3)CCO2)ccn1 | +++ (Emax>150 and ≤250)
Cc1cnc2c(-c3ccc(Cl)cc3F)nc(N3CCO[C@@H](c4cnn(C5COC5)c4)C3)cc2n1 | ++++ (Emax>250)
Cc1ccc2c(-c3ccc(Cl)cc3F)nc(N3CCO[C@@H](c4cnn(C)c4)C3)cc2c1 | ++++ (Emax>250)
Cc1cc([C@H]2CN(c3cc4nc(C)c(C)nc4c([C@H]4C[C@H](C(F)(F)F)C4)n3)CCO2)ccn1 | +++ (Emax>150 and ≤250)
Cc1cc2c(-c3ccc(Cl)cc3F)nc(N3CCO[C@@H](c4cnn(C)c4)C3)nc2nc1C | ++++ (Emax>250)

Field: next molecule
Which hTREM2 Emax value is on record for Cc1nc2nc(N3CCO[C@@H]([C@H]4CCOC4)C3)nc(-c3ccc(F)cc3F)c2nc1C ?
+++ (Emax>150 and ≤250)
